test system: Wolbachia pipientis; experiment: Anti-Wolbachia Cell-Based Screen; assay type: functional; set-up: scale not given: in the data most compounds retested in dose-response had high values; conditions: 5 µM
Out of some 48,000 compounds screened, about 13,000 (27%) showed an effect of 50% or more. The list shows a part of the results.
attribute-measured: Percent Effect (%)
Write it as a number; the unit % goes unstated.

molecule="O=C(c1cc(C2CC2)[nH]n1)N1CCCC(n2cncn2)C1 (centres undefined)" quantity_unit=% value_reported=0.773
molecule="O=C(NCC1(O)CCOC1)NCC1(c2ccccc2Cl)CCC1 (centres undefined)" quantity_unit=% value_reported=17.28
molecule=CC(C)=CCS(=O)(=O)Cc1nc(C(C)C)no1 quantity_unit=% value_reported=-0.5421

Input: Item O=C(O)C(F)(F)F.O=C(O)[C@]12CCCN(Cc3ccccc3)C[C@H]1CN(c1ncccn1)C2 with Wolbachia pipientis - Percent Effect?
Output: -10.65

Input: Notebook entry, Wolbachia pipientis assay: Percent Effect of CCc1oc(C(=O)NCCc2nc(C(=O)O)cs2)cc1CN1CCCC1 = ?
Output: 10.42

* * *

test system: Wolbachia pipientis; test: Anti-Wolbachia Cell-Based Screen; assay type: functional; design: scale not given: in the data most compounds retested in dose-response had high values; conditions: 5 µM
The campaign covered roughly 48,000 compounds. About 13,000 (27%) showed an effect of 50% or more. Some of the results follow.
Response field label takes class 1 when Percent Effect is strictly below 90% and class 0 in all other cases.

These solved cases illustrate the format of a correct answer.
molecule=c1cncc(-n2cnnc2CC2CCNCC2)c1 answer_label="class 1"
molecule=Cc1nn(C)c(C)c1-c1cnc(CC2CCNCC2)cn1 answer_label="class 0"
molecule=Cc1nn(C)c(C)c1-c1nccnc1CC1CCNCC1 answer_label="class 0"
molecule=Cc1noc(C)c1CN1CCn2c(CN3CCN(C)CC3)cnc2C1.O=C(O)C(F)(F)F.O=C(O)C(F)(F)F.O=C(O)C(F)(F)F answer_label="class 1"

Input: Could you please tell me whether Percent Effect recorded for Cc1cnc(C(=O)N2CCCC(Cn3cc(CC(C)C)nn3)C2)cn1 (stereo unspecified) is less than 90%?
Output: class 1

* * *

test system: Wolbachia pipientis; test: Anti-Wolbachia Cell-Based Screen; assay type: functional; design: scale not given: in the data most compounds retested in dose-response had high values; settings: 5 µM
The whole screen tested about 48,000 compounds, of which about 13,000 (27%) showed an effect of 50% or more. Some of the results follow.
attribute-measured: Percent Effect (%)
Value expressed in %; do not type the unit.

Answered examples (2):
molecule=CCS(=O)(=O)N1CCc2ccc(=O)n(CC3CC3)c2CC1 value_reported=-6.425
molecule="Cc1ccc(CCNC(=O)N2CCCC(Cc3nccn3C)C2)cn1 (configuration not stated)" value_reported=-1.285

Input: Given CCNc1ncc(C(=O)NCc2csc(-c3ncccn3)n2)cn1 , state its recorded Percent Effect.
Output: -30.13

Input: // query Percent Effect value for entry COCCNC(=O)c1cccnc1Sc1cc(OC)ccc1OC
Output: 161.9

Input: Could you share which Percent Effect value was measured for CCCN1CCC(Nc2cc(-c3ccccc3)ccc2OC)CC1 ?
Output: 9.804

Input: What measured Percent Effect goes with COc1ccccc1N1CCN(C(=O)CCCS(N)(=O)=O)C(C)C1 (configuration not stated) ?
Output: -9.849

Input: Need Percent Effect, item CSCC[C@H](N)c1nnc(SCc2cc(C)ccc2C)o1.Cl
Output: 100.9

Input: Look up Percent Effect for this molecule: C/C=C(\C)CN1C[C@@H](NC(=O)c2ccc(F)c(F)c2)C[C@H]1C(=O)NCC
Output: -14.95

Input: Look up Percent Effect for this molecule: COCCC1(C(=O)O)CCCN(C(=O)c2cnc3c(c2)CCCC3)C1 (configuration not stated)
Output: 8.826

Input: Entry COc1ccc(OC)c(C(=O)Nc2cccnc2-n2cncn2)c1 has what Percent Effect?
Output: 13.43

Input: What Percent Effect value was documented for this molecule, Cc1ccc(C)c(CSc2nnc([C@@H](N)C(C)C)o2)c1.Cl ?
Output: 118.1

Input: Name the recorded Percent Effect for Cc1occc1C(=O)N1CCCN(Cc2cnn(C(C)C)c2)CC1 .
Output: -5.086

Reference source for all entries: ChEMBL document CHEMBL3988442
